The origin of these recorded values is patent US8148339B2.

- method: in vivo
- assay_conditions: male, athymic NCr-nu/nu, mouse, iv, 8 mg/kg
Structures can show the parent of a compound that is named as a salt.
parameter: concentration at 1 day after the last injection (day 26) (ng/g)
// return numeric value only (unit: ng/g, not printed)

QUERY: Query: concentration at 1 day after the last injection (day 26); subject: COc1cccc2c1C(=O)c1c(O)c3c(c(O)c1C2=O)C[C@@](O)(C(=O)CO)C[C@@H]3O[C@H]1C[C@H](N)[C@H](O)[C@H](C)O1 [DOX, hydrochloride]
RESULT: 7400
